- testedOn: GalNAc3S(b1-4)[Fuc(a1-3)]GlcNAc
- protocolSummary: glycan array binding signal (z-score within array); higher = stronger binding
- setupConditions: glycan notation: IUPAC condensed, linker removed
Shown is part of a subset that was picked to be rich in the strongest signals.
Each record here notes measured glycan array binding signal (z-score).
assayMetric: glycan array binding signal (z-score)

>>> readoutvalue("NKR-PIC (Mus musculus) (protein) GTGQKPSREKCCVFIQENLNKTTDCSVNLECPQDWLLHRDKCFHVSQVSNTWEEGQADCGRKGATLLLIQDQEELRFLLDSIKEKYNSFWIGLRFTLPDMNWKWINGTTFNSDVLKITGVTENGSCASILGDKVTPESCASDNRWICQKELNHETPSNDSGT")
-0.38
>>> readoutvalue("DC-Sign-R (Homo sapiens), Q9H2X3 (protein) MSDSKEPRVQQLGLLEEDPTTSGIRLFPRDFQFQQIHGHKSSTGCLGHGALVLQLLSFMLLAGVLVAILVQVSKVPSSLSQEQSEQDAIYQNLTQLKAAVGELSEKSKLQEIYQELTQLKAAVGELPEKSKLQEIYQELTRLKAAVGELPEKSKLQEIYQELTRLKAAVGELPEKSKLQEIYQELTRLKAAVGELPEKSKLQEIYQELTELKAAVGELPEKSKLQEIYQELTQLKAAVGELPDQSKQQQIYQELTDLKTAFERLCRHCPKDWTFFQGNCYFMSNSQRNWHDSVTACQEVRAQLVVIKTAEEQNFLQLQTSRSNRFSWMGLSDLNQEGTWQWVDGSPLSPSFQRYWNSGEPNNSGNEDCAEFSGSGWNDNRCDVDNYWICKKPAACFRDE")
-0.794
>>> readoutvalue("CC1G-11630 (Coprinopsis cinerea), A8P462 (protein) MTTEAKIKLKAVVYWELVFDYDNSSNTGEITQSYTVKISQTSTRSTFASEVSTTTIDTLTKNNQEVDVGASYGAISANVSASWEHSEEVNNMLEKTTQTSTEDTYTVETEETRSYTIGPGGMLSLFQKHFSGPGMHVAFDVFTTDLELAKERTEIDIDVDVEAIRFVREIRVVYTDIMSEAPGDHVREINGKNPDINYGFNGKFVWLVPEQTRKTAQALTNVEFVSQAESDDRYWDLAAGAGGSNRYLIPVYDTNNKDKIYELALWRSDSYITHDKVKAAGWSGTTGDINSGRGGTYLNLVWKTRHAY")
0.036
>>> readoutvalue("XL-35 (Xenopus laevis) (protein) MLVHILLLLVTGGLSQSCDPVVIVASKNMVKQLDCDKFRNCKEIKDSNEEAQDGIYTLTSPDGISYQTFCDMTTNGGGWTLVASVHENNMAGKCTIGDRWSSQQGNRADYPEGDGNWANYNTFGSAGGATSDDYKNPGYYDIEAYNLGVWHVPNKTPLSVWRNSSLQRYRTTDGILFKHGGNLFSLYRIYPVKYGIGSCSKDSGPTVPVVYDLGSANLTASFYSPGFRSQFTPGYIQFRPINTEKAALALCPGMKMESCNVEHVCIGGGGYFPEADPRQCGDFAAYDFNGYGTKKFNSAGIEITEAAVLLFYL")
-0.078
